target: Hexose transporter 1 (Plasmodium falciparum); test: ST_JUDE_LEISH: Cytotoxicity at 2uM final concentration against transgenic Leishmania Mexicana promastigotes LmPfHT that are glucose transport deficient and complemented with the Plasmodium falciparum hexose transporter. Activity is measured by DNA content using SYBR green in vitro; format: functional
For each entry below, report its inhibition value.
The reply should be a number in %, with the unit left off.

Query: Look up inhibition: `CCOC(=O)c1c(CN2CCCC2)n(-c2ccccc2)c2cc(Br)c(O)cc12`
Reply: 14

Query: Same for `N=C(N)NC(=O)Nc1cc(Cl)c(F)c(Cl)c1`
Reply: 4.24

Query: Same for `N#Cc1cc(N(CCCOc2cccc(OC(F)(F)F)c2)Cc2ccccc2C(F)(F)F)ccc1C(F)(F)F`
Reply: -0.39

Query: Same for `Cc1cc(C2CCN(CCCCNC(=O)c3ccc(-c4ccc(C(F)(F)F)cc4)cc3)CC2)c(C)cc1OCCO`
Reply: 5.28

Query: Same for `CC[C@H](C)CNC(=O)c1cncc(-c2cccc(CNC3Cc4ccccc4C3)c2)c1`
Reply: 0.31

====

biological target: Solute carrier family 2, facilitated glucose transporter member 1 (Homo sapiens) (UniProt P11166); test: ST_JUDE_LEISH: Cytotoxicity at 2uM final concentration against transgenic Leishmania Mexicana promastigotes LmGLUT1 that are glucose transport deficient and complemented with the human glucose transporter GLUT1. Activity is measured by DNA content using SYBR green in vitro; assay type: functional
Sequence (P11166 whole entry): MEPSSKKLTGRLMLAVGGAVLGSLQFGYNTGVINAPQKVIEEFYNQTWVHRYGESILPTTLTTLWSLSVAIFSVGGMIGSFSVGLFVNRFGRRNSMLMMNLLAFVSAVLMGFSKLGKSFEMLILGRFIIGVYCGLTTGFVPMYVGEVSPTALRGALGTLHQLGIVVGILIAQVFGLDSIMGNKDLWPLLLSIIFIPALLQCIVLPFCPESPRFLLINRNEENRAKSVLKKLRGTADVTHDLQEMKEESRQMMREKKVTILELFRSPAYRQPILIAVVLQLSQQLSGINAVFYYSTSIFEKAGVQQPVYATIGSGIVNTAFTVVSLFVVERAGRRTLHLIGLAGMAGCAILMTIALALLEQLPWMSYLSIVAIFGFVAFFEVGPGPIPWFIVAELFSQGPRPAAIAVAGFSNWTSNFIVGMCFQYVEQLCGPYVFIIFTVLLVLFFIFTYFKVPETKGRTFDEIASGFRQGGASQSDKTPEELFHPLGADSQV
EXPERIMENTAL ENDPOINT: inhibition (%)
The reply should be a number in %, with the unit left off.

Query: Look up inhibition: `NC1=NC(c2ccccc2)(c2ccccc2)C(=O)N1CC1CCC1`
Reply: 0.06

Query: Same for O=C(/C=C/c1ccc(Cl)c(Cl)c1)NCCCCCN1CCCC(C(=O)Nc2ccc(Cl)c(Cl)c2)C1 (stereo not given)
Reply: -0.31

Query: Same for `COc1ccc(S(=O)(=O)N(CCCN2CCN(C)CC2)Cc2csc(-c3ccc(CNCc4ccccc4)cc3)n2)cc1`
Reply: -1.13

Query: Same for Cn1c2c(c3ccccc31)CN(CCC1(c3ccc(Cl)c(Cl)c3)CN(C(=O)Cc3ccccc3)CCO1)CC2 (stereo not given)
Reply: 2.23

Query: Same for Cc1ccc(CCC(C)NCC(O)c2cccc(Cl)c2)cc1 (stereo not given)
Reply: 12.8

Query: Same for c1cc(C2=NC3CCCCC3N2)ccc1OCCCOc1ccc(C2=NC3CCCCC3N2)cc1 (stereo not given)
Reply: 7.04

Query: Same for `COc1ccc2[nH]ccc(=NN=Cc3ccccc3Cl)c2c1`
Reply: 7.36

Query: Same for `COc1cccc(C(=O)Nc2ccc(S(=O)(=O)c3cc4c(cc3OC)CCN(C)CC4)cc2)c1`
Reply: 1.6

Query: Same for `COc1ccc2c(c1)c(C1CCN(CCCCNC(=O)c3ccc(-c4ccc(C(F)(F)F)cc4)cc3)CC1)cn2C(C)C`
Reply: -0.71

Query: Same for Cc1nn(CC(O)Cn2c3ccc(Br)cc3c3cc(Br)ccc32)c(C)c1Br (stereo not given)
Reply: -0.46

Query: Same for `O=C(Cc1ccccn1)Nc1cccc(-c2cccc(-c3nc4cc(C(F)(F)F)ccc4[nH]3)c2)c1`
Reply: 0.14

Query: Same for `CCNS(=O)(=O)c1ccc(Oc2ccc([N+](=O)[O-])cc2)cc1`
Reply: 0.11

Query: Same for `CC(=O)Nc1ccc(CN(C)C2CCN(c3cc(NC(=O)c4cccc(C)c4)ccn3)CC2)cc1`
Reply: 2.4

Query: Same for `Nc1cccc(CNCc2cccc(-c3ccc(-c4nc5cc(C(F)(F)F)ccc5[nH]4)cc3)c2)c1`
Reply: 4.8

Query: Same for CCCC1N=C(N)N=C(N)N1c1ccc(C)cc1 (stereo not given)
Reply: 4.06

Query: Same for `Cc1cc(NC(=O)Nc2ccc(Cl)cc2F)c2ccccc2n1`
Reply: 3.45

Query: Same for `O=C(N[C@@H](Cc1ccccc1)C(=O)NCCN1CCCCC1)c1ccc(O)c(-c2cccc(C(F)(F)F)c2)c1`
Reply: 2.63

Query: Same for `O=C(Nc1ccc2ccccc2c1)c1ccc(CN2CCC(Cc3ccccc3)CC2)cc1`
Reply: -2.67

Query: Same for `Nc1nc(N)c2c(ccc3c2ccn3Cc2ccccc2)n1`
Reply: 92.2

Query: Same for `CCn1c(Cc2ccccc2)nnc1SCC(=O)N1c2ccccc2Sc2ccccc21`
Reply: 4.01
